PROTOCOL_DESCRIPTION: Aqueous solubility of the compound
Format: physicochemical

COMPOUND_STRUCTURE_STRING: Cc1cc(C)nc(NC(=S)N2CCN(c3ccncc3)CC2)c1
solubility: > 48 µM

###

TARGET_ENTITY: D-3-phosphoglycerate dehydrogenase (Homo sapiens)
Sequence (whole entry): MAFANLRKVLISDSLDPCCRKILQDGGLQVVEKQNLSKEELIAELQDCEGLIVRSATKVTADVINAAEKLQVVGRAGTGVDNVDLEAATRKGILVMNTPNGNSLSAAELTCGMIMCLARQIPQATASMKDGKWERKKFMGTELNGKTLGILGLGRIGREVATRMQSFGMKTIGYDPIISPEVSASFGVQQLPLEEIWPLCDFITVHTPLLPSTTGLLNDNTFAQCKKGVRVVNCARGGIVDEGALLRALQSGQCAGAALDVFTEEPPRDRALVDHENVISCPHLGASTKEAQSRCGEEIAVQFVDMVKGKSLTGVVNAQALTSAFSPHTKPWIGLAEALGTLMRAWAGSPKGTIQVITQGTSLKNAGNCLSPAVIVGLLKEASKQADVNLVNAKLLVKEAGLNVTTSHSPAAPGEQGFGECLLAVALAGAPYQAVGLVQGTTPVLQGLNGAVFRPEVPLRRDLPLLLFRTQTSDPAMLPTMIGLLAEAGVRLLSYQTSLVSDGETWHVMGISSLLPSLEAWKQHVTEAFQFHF
PROTOCOL_DESCRIPTION: Inhibition of N-terminal His6-tagged human liver PHGDH expressed in Escherichia coli Rosetta (DE3)pLysS at 57 uM using 3-phosphoglycerate as substrate after 20 mins in presence of NAD+ by resazurin fluorescence based PSAT1/diaphorase/PSPH coupled enzyme assay
Below, each entry is listed alongside its reported inhibition.

COMPOUND: Cc1cc(C)nc(NC(=S)N2CCN(c3ccccn3)CC2)c1
UOM: %
inhibition: 73
//
COMPOUND: Cc1cc(C)nc(NC(=S)N2CCN(Cc3ccc(Br)cc3)CC2)c1
UOM: %
inhibition: 92
//
COMPOUND: Cc1cc(C)nc(NC(=S)N2CCN(c3cccc(C(F)(F)F)n3)CC2)c1
UOM: %
inhibition: 100
//
COMPOUND: Cc1cc(C)nc(NC(=S)N2CCN(C(=O)c3ccc(C(F)(F)F)cc3)CC2)c1
UOM: %
inhibition: 85
//
COMPOUND: Cc1cc(C)nc(NC(=S)N2CCCC(Nc3cccc(C(F)(F)F)c3)C2)c1 (stereo not given)
UOM: %
inhibition: 84
//
COMPOUND: Cc1cc(C)nc(NC(=S)N2CCN(Cc3ccc(C(F)(F)F)cc3)CC2)c1
UOM: %
inhibition: 96
//
COMPOUND: Cc1cccc(CN2CCN(C(=S)Nc3cc(C)cc(C)n3)CC2)c1
UOM: %
inhibition: 92
//
COMPOUND: FC(F)(F)c1cccc(N2CCN(C(=S)Nc3ccc4ccccc4n3)CC2)c1
UOM: %
inhibition: 90
//
COMPOUND: COc1ccccc1N1CCN(C(=S)Nc2cc(C)cc(C)n2)CC1
UOM: %
inhibition: 109
//
COMPOUND: Cc1cc(C)nc(NC(=S)NCCNCc2ccc(C(F)(F)F)cc2)c1
UOM: %
inhibition: 41
//
COMPOUND: Cc1cc(C)nc(NC(=S)N2CCCC(NC(=O)c3cccc(C(F)(F)F)c3)C2)c1 (stereo not given)
UOM: %
inhibition: 91
//
COMPOUND: Cc1cc(C)nc(NC(=S)N2CCCC(Nc3ccc(C(F)(F)F)cc3)C2)c1 (stereo not given)
UOM: %
inhibition: 85
//
COMPOUND: Cc1cc(C)nc(NC(=S)N2CCC(Nc3cccc(C(F)(F)F)c3)CC2)c1
UOM: %
inhibition: 90
//
COMPOUND: Cc1cc(C)nc(NC(=S)N2CCN(Cc3ccc(Cl)cc3)CC2)c1
UOM: %
inhibition: 97
//
COMPOUND: Cc1cc(C)nc(NC(=S)N2CCN(Cc3ccccc3C(F)(F)F)CC2)c1
UOM: %
inhibition: 92

###

TARGET_ENTITY: D-3-phosphoglycerate dehydrogenase (Homo sapiens, UniProt O43175)
pIC50: −log10 of the molar value.
Below, each entry is listed alongside its reported pIC50.

COMPOUND: Cc1cc(C)nc(NC(=S)N2CCN(Cc3ccccc3C)CC2)c1
pIC50: 5.04
//
COMPOUND: Cc1cc(C)nc(NC(=S)N2CCN(Cc3ccc(C(F)(F)F)cc3)[C@@H](C)C2)c1
pIC50: 5.00
//
COMPOUND: Cc1cc(C)nc(NC(=S)N2CCN(Cc3ccc(OC(F)(F)F)cc3)CC2)c1
pIC50: 4.96
//
COMPOUND: Cc1cc(C)nc(NC(=S)N2CCC(NC(=O)c3ccc(C(F)(F)F)cc3)CC2)c1
pIC50: 5.00
//
COMPOUND: FC(F)(F)c1cccc(N2CCN(C(=S)Nc3ccc4ccccc4n3)CC2)c1
pIC50: 5.00
//
COMPOUND: Cc1cc(C)nc(NC(=S)N2CCN(c3ccccc3C(F)(F)F)CC2)c1
pIC50: 5.06
//
COMPOUND: Cc1cccc(CN2CCN(C(=S)Nc3cc(C)cc(C)n3)CC2)c1
pIC50: 4.70
//
COMPOUND: Cc1cc(C)nc(NC(=S)N2CCN(CCc3ccc(C(F)(F)F)cc3)CC2)c1
pIC50: 4.64
//
COMPOUND: Cc1cc(NC(=S)N2CCN(c3cccc(C(F)(F)F)c3)CC2)nc2ccccc12
pIC50: 4.68
//
COMPOUND: Cc1cc(C)nc(NC(=S)N2CCN(Cc3ccc(C(F)(F)F)cc3)[C@H](C)C2)c1
pIC50: 4.92
//
COMPOUND: Cc1cc(C)nc(NC(=S)N2CCN(Cc3ccc(C(F)(F)F)cc3)C(CO)C2)c1 (stereo not drawn)
pIC50: 5.24
//
COMPOUND: Cc1cc(C)nc(NC(=S)N2CCC(Nc3cccc(C(F)(F)F)c3)CC2)c1
pIC50: 5.19
//
COMPOUND: Cc1cc(C)nc(NC(=S)N2CCN(Cc3ccccn3)CC2)c1
pIC50: 4.30

###

Lab note: pIC50 readings collected with UniProtKB O43175 for the following molecules.
pIC50: −log10 of the molar value.
READOUT_TYPE: pIC50

MOLECULE: Cc1cc(C)nc(NC(=S)NCCNCc2ccc(C(F)(F)F)cc2)c1
RESULT_NUMBER: 5.01

MOLECULE: Cc1cc(C)nc(NC(=S)N2CCC(Nc3ccc(C(F)(F)F)cc3)CC2)c1
RESULT_NUMBER: 5.11

MOLECULE: Cc1cc(C)nc(NC(=S)N2CCCC(NC(=O)c3ccc(C(F)(F)F)cc3)C2)c1 (stereo not given)
RESULT_NUMBER: 5.06

MOLECULE: COC(=O)c1ccnc(NC(=S)N2CCN(c3cccc(C(F)(F)F)c3)CC2)c1
RESULT_NUMBER: 4.89

MOLECULE: Cc1cc(C)nc(NC(=S)N2CCC(NC(=O)c3cccc(C(F)(F)F)c3)CC2)c1
RESULT_NUMBER: 4.96

###

TARGET_ENTITY: UniProt O43175
pIC50: −log10 of the molar value.
Tick Fulfilled if pIC50 is 5 or greater. Tick Not fulfilled if pIC50 is less than 5.

COMPOUND: Cc1cc(C)nc(NC(=S)N2CCN(Cc3ccc(C(F)(F)F)cc3)C(c3ccccc3)C2)c1 (centres undefined)
TARGET_ENTITY: UniProt O43175
CATEGORY_LABEL: Not fulfilled
--
COMPOUND: Cc1cc(C)nc(NC(=S)N2CCN(C(=O)c3ccc(C(F)(F)F)cc3)CC2)c1
TARGET_ENTITY: UniProt O43175
CATEGORY_LABEL: Not fulfilled
--
COMPOUND: Cc1cc(C)nc(NC(=S)N2CCN(Cc3ccc(Br)cc3)CC2)c1
TARGET_ENTITY: UniProt O43175
CATEGORY_LABEL: Not fulfilled
--
COMPOUND: FC(F)(F)c1cccc(N2CCN(C(=S)Nc3cc(C(F)(F)F)ccn3)CC2)c1
TARGET_ENTITY: UniProt O43175
CATEGORY_LABEL: Fulfilled
--
COMPOUND: Cc1cc(C)nc(NC(=S)N2CCN(Cc3ccc(C(F)(F)F)cc3)C(C(=O)O)C2)c1 (centres undefined)
TARGET_ENTITY: UniProt O43175
CATEGORY_LABEL: Not fulfilled
--
COMPOUND: FC(F)(F)c1cccc(N2CCN(C(=S)Nc3ccccn3)CC2)c1
TARGET_ENTITY: UniProt O43175
CATEGORY_LABEL: Fulfilled
--
COMPOUND: Cc1cc(C)nc(NC(=S)N2CCN(Cc3ccccc3C(F)(F)F)CC2)c1
TARGET_ENTITY: UniProt O43175
CATEGORY_LABEL: Fulfilled
--
COMPOUND: COc1ccccc1N1CCN(C(=S)Nc2cc(C)cc(C)n2)CC1
TARGET_ENTITY: UniProt O43175
CATEGORY_LABEL: Not fulfilled
